# Subject Of Test: CDK2/Cyclin E1 complex (Homo sapiens)
# Method Notes: CDK2 inhibition assay (Caliper/LabChip EZ Reader kinase assay)
# Format: biochemical
# Run Conditions: Table 1; CDK2/Cyclin E1 0.5 nM, ATP 2 mM, 35 min at 27° C.; listed as 141
pIC50: −log10 of the molar value.
Value Kind: pIC50

Determine from records and report pIC50 for FC(F)(F)c1cnc(N[C@H]2CCCNC2)nc1-c1c[nH]c2cc(-c3cccc(Oc4ccccc4)c3)ccc12
5.30 to 6.70

* * *

Listing of entries alongside the reported pIC50.
# Subject Of Test: CDK2/Cyclin E1 complex (Homo sapiens)
# Method Notes: CDK2 inhibition assay (Caliper/LabChip EZ Reader kinase assay)
# Type: biochemical
# Run Conditions: Table 1; CDK2/Cyclin E1 0.5 nM, ATP 2 mM, 35 min at 27° C.
pIC50: −log10 of the molar value.

With CDK2/Cyclin E1 complex (Homo sapiens) as the test system, provide measured pIC50 for this compound: FC(F)(F)c1cnc(N[C@H]2CCCNC2)nc1-c1c[nH]c2cc(-c3ccc4ncsc4c3)ccc12
5.30 to 6.70

Report the value of pIC50 obtained on CDK2/Cyclin E1 complex (Homo sapiens) for CP(C)(=O)c1cccc2c(-c3nc(N[C@H]4CCCNC4)ncc3C(F)(F)F)c[nH]c12 [Compound 352] .
< 5.30

Give CDK2/Cyclin E1 complex (Homo sapiens) pIC50 for the following compound: N#C[C@@H]1CCN(C(=O)c2ccc3c(-c4nc(N[C@H]5CCCNC5)ncc4C(F)(F)F)c[nH]c3c2)C1
5.30 to 6.70

Write down measured pIC50 (CDK2/Cyclin E1 complex (Homo sapiens)) for this compound. FC(F)(F)c1cnc(N[C@H]2CCCNC2)nc1-c1c[nH]c2cc(-c3cccc(Oc4ccccc4)c3)ccc12
< 5.30

GET pIC50 | system: CDK2/Cyclin E1 complex (Homo sapiens) | item: CCN1CCC[C@H](Nc2ncc(C(F)(F)F)c(-c3c[nH]c4cc(C#N)ccc34)n2)C1
5.30 to 6.70

Provide the reported pIC50 (system: CDK2/Cyclin E1 complex (Homo sapiens)) for O=C(c1ccc2c(-c3nc(N[C@H]4CCCNC4)ncc3C(F)(F)F)c[nH]c2c1)N1CC[C@H](O)C1
< 5.30

* * *

# Subject Of Test: CDK7/Cyclin H/MAT1 complex (Homo sapiens, UniProt P50613)
# Sequence (P50613 whole entry, species assumed): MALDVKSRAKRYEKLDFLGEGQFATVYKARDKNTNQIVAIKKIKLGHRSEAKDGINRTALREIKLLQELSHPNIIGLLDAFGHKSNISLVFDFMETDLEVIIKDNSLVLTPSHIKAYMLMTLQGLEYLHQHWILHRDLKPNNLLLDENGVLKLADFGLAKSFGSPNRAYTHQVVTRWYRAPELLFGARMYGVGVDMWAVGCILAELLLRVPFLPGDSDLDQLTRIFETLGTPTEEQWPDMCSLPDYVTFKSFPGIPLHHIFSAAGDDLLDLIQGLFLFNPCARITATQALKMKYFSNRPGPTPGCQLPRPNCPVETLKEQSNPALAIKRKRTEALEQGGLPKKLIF
# Sequence (P51946 whole entry partner, species assumed): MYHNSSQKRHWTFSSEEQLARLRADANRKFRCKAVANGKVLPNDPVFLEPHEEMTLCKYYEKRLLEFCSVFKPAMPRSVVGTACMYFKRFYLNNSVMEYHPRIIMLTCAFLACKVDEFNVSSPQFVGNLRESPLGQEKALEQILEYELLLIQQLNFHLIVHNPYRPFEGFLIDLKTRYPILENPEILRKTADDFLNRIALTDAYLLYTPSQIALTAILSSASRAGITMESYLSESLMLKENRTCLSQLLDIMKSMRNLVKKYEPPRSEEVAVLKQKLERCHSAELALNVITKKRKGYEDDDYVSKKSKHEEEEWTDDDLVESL
# Sequence (P51948 whole entry partner, species assumed): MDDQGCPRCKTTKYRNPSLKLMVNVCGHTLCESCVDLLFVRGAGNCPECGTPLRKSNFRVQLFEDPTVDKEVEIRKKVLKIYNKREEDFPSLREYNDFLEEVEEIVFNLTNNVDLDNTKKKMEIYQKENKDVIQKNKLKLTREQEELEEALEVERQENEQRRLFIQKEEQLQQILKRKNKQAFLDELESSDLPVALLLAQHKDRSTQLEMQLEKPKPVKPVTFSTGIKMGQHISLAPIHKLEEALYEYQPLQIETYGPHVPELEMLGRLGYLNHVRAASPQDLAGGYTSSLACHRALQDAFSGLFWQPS
# Method Notes: CDK7 inhibition assay (Caliper/LabChip EZ Reader kinase assay)
# Format: biochemical
# Run Conditions: Table 1; CDK7/Cyclin H/MAT1 6 nM, ATP 2 mM, 35 min at 27° C.; listed as 109
pIC50: −log10 of the molar value.
Value Kind: pIC50

Please report the measured pIC50 for CS(=O)(=O)c1c(C#N)ccc2c(-c3nc(N[C@H]4CCCNC4)ncc3Cl)c[nH]c12 [Compound 294]
> 7.70

* * *

# Subject Of Test: CDK7/Cyclin H/MAT1 complex (Homo sapiens, UniProt P50613)
# Method Notes: CDK7 inhibition assay (Caliper/LabChip EZ Reader kinase assay)
# Type: biochemical
# Run Conditions: Table 1; CDK7/Cyclin H/MAT1 6 nM, ATP 2 mM, 35 min at 27° C.; listed as 113
Value Kind: IC50

Provide only the value of recorded IC50 for Cn1ccc(-c2ccc3c(-c4nc(N[C@H]5CCCNC5)ncc4C(F)(F)F)c[nH]c3c2)n1 [Compound 303]
20 to 200 nM
